target: AHR (Mus musculus, UniProt P30561); test: In vitro assay 3: antagonism in mouse cell line (AHR transactivation, firefly luciferase reporter, kynurenic acid prestimulated); type: cell-based; details: mouse Hepa 1c1c7 cells, 200 μM kynurenic acid, 20 hours, read-out: AHR Antagonism Mouse IC50
Sequence (P30561 whole entry P471L/N533S/M589L, form open): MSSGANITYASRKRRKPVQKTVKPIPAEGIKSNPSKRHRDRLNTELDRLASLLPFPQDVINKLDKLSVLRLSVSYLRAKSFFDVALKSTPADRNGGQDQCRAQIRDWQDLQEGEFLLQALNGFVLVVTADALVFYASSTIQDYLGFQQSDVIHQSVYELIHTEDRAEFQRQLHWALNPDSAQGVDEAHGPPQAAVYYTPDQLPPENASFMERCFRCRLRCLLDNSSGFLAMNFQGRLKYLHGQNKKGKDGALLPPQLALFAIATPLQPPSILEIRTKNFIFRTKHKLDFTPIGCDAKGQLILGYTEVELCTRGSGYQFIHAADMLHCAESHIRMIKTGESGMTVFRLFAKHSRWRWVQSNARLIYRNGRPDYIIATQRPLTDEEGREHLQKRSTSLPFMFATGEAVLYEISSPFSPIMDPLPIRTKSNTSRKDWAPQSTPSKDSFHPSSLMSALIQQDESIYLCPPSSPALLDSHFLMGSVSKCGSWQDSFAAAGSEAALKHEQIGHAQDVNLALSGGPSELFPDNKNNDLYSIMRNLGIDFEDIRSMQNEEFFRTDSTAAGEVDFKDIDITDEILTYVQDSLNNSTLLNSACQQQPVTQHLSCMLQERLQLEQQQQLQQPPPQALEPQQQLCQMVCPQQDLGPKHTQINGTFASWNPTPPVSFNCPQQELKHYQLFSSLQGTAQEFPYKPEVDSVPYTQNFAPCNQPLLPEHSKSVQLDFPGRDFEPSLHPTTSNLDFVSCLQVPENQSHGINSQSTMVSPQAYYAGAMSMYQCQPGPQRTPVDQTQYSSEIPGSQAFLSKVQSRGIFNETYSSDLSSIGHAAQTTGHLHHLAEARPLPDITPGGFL

compound	measuredTarget	IC50, nM
Cc1nn(C2CC2)c(C)c1-c1nc2c3cccc(C(F)(F)F)c3nc(N[C@@H]3CCCCNC3=O)n2n1 [Example 745]	AHR (Mus musculus, UniProt P30561)	1.14
COc1ccc(-c2nc3c4ccccc4nc(N[C@@H]4CCCCNC4=O)n3n2)cc1OC [Example 624]	AHR (Mus musculus, UniProt P30561)	1.24
N#Cc1cccc2nc(N[C@@H]3CCCCNC3=O)n3nc(-c4cccc(F)c4)nc3c12 [Example 249]	AHR (Mus musculus, UniProt P30561)	3.63
O=C1NCCCC[C@H]1Nc1nc2c(C(F)(F)F)cccc2c2nc(-c3cnn(CC4CC4)c3)nn12 [Example 742]	AHR (Mus musculus, UniProt P30561)	1.9
O=C1NCCCC[C@H]1Nc1nc2ccccc2c2nc(-c3cnn(C4CCOCC4)c3)nn12 [Example 600]	AHR (Mus musculus, UniProt P30561)	31.3
COc1ccc(-c2nc3c4cccc(Br)c4nc(N[C@@H]4CCCCNC4=O)n3n2)c(C(F)(F)F)c1 [Example 569]	AHR (Mus musculus, UniProt P30561)	4.3

meta.source: patent US20230113037A1
